# Test system: SNB-19 CNS
# Measurement description: NCI-60 one-dose screen, 48 h (100 = growth as untreated, 0 = no growth, -100 = all killed)
# Applied conditions: 10 µM unless noted
Compounds without any hit were thinned out: in the full panel of roughly 83,000, 20% have a hit. The source made the active and inactive calls. How the source made its calls: active means growth percent below 10; inactive means the rest.
Recorded growth by entry

Compound | growth
CC1(C)CC[C@]2(C(N)=O)CC[C@]3(C)C(=CC[C@@H]4[C@@]5(C)C/C(=C/c6ccncc6)C(=O)C(C)(C)[C@@H]5CC[C@]43C)[C@@H]2C1 | -83.8% [100 µM] (active)
Cc1cc(SC#N)ncn1 | 103% (inactive)
O=S(=O)(/N=c1/n(-c2ccccc2)nc2n1CCN2C1=NCCN1)c1ccc(-c2ccccc2)cc1 | 97.1% (inactive)
COc1cc2c(=O)[nH]c3cc([N+](=O)[O-])ccc3c2cc1[N+](=O)[O-] | 58.3% (inactive)

Next up:
Requested read-out: growth. Entry: COc1ccc(-c2cc(-c3ccc(Cl)cc3)nc(NCCCCNc3ccnc4cc(Cl)ccc34)n2)cc1
95.5% (inactive)

* * *

# Test system: HCC-2998 colon
# Measurement description: NCI-60 one-dose screen, 48 h
# Applied conditions: 10 µM unless noted
The panel holds about 83,000 compounds, 20% with a hit somewhere; the sample as a whole holds those more often. Calls of active or inactive are those of the source. Rule for the calls: active = growth percent below 10; inactive = the rest.
Your answer must be one of the following: active, inactive

Example entries and their recorded answers appear below.
Molecule | Class label
CC(C)[C@H]1COC(=O)N1[C@@H]1C(=O)N([C@@H](CCC(=O)N2CCN(C3CCCC3)CC2)C(=O)N[C@@H]2CCCc3ccccc32)[C@@H]1/C=C/c1cccc(Cl)c1 | inactive
O=C1CC(C(F)(F)F)Cc2nc3ccc(Br)cc3cc21 (stereo not given) | inactive
Cc1ccc(NC(=O)N[C@@H](Cc2cc(F)cc(F)c2)C(=O)N[C@@H]2C(=O)N3CCC[C@H]3C(=O)N3CCOC[C@H]3C(=O)N[C@@H](C)C(=O)N3C[C@H](C)C[C@H]3C(=O)O[C@H]2C)cc1 | inactive
Cc1cccc(C[C@H](NC(=O)Nc2ccc(C)cc2F)C(=O)N[C@@H]2C(=O)N3C[C@H](O)C[C@H]3C(=O)N3CCN(C)C[C@H]3C(=O)N[C@@H](C)C(=O)N3C[C@H](C)C[C@H]3C(=O)O[C@H]2C)c1 | inactive
O=C(O)CC1CCCCC1c1ccccc1 (stereo not given) | inactive
c1ccc(-c2nc(N3CCCNCC3)c3nc(-c4ccccc4)oc3n2)cc1 | active

Hi, do you know how COc1ccc(-c2ccc(NNC(=O)c3ccc(F)cc3)nn2)cc1OC came out in this test?
inactive

Please indicate how the test categorized CC1Cc2ccc(OCCN(C)C)cc2C1=O (stereo not given) .
inactive

Record request — test call for CN(C)CCCNc1nc(-c2cccc(C(Cl)(Cl)Cl)c2)nc(C(Cl)(Cl)Cl)n1
inactive

For C=CCCCCOc1ccccc1-c1cnc(OCCCCC=C)n1C , what call appears in the results of this test?
inactive

Query: recorded result category for COc1cc(NCc2ccccc2O)c2ncccc2c1 in this test
inactive

* * *

# Tested on: SK-OV-3 ovarian
# Measurement description: NCI-60 one-dose screen, 48 h (100 = growth as untreated, 0 = no growth, -100 = all killed)
# Applied conditions: 10 µM unless noted
The panel holds about 83,000 compounds, 20% with a hit somewhere; the sample as a whole holds those more often. Activity calls are given as the source filed them. The calls were made as follows: active = growth percent below 10; inactive = the rest.
Recorded growth by entry

Molecule | Observed value
CC1=CCc2ccccc21 | 101% (inactive)
C=C(C)[C@@H]1CC[C@]2(C(=O)OC)CC[C@]3(C)[C@H](CC[C@@H]4[C@@]5(C)CC/C(=N\OCCC(=NCCC#N)NOCCC#N)C(C)(C)[C@@H]5CC[C@]43C)[C@@H]12 | 34.6% [100 µM] (inactive)
C=CCc1nc2ccccc2s1 | 110% (inactive)
COc1ccc(C2CC(c3cc(OC)c(OC)c(OC)c3)=NN2C(C)=O)cc1OCC(=O)Nc1nc2ccc(C(F)(F)F)cc2s1 (stereo not given) | 97% (inactive)

Now examine the next entry.
Requested field: growth. Item: COc1ccc(-c2cc(-c3ccc(OC)c(OC)c3)nc(SCCCCCC(=O)NO)n2)cc1
46.6% (inactive)

* * *

# Tested on: NCI-H460 lung
# Measurement description: NCI-60 one-dose screen, 48 h
# Applied conditions: 10 µM unless noted
The panel holds about 83,000 compounds, 20% with a hit somewhere; the sample as a whole holds those more often. The source made the active and inactive calls. How the source made its calls: active means growth percent below 10; inactive means the rest.
# valid calls are 1 (active), -1 (inactive); nothing else

Compound | Class label
O=S(=O)(NCCNc1nccc(-c2c(-c3cccc(F)c3)nc3occn23)n1)c1ccc(C(F)(F)F)cc1 | -1

Record request — test call for CC1(C)C(=O)/C(=C\c2ccco2)C[C@]2(C)[C@H]3CC=C4[C@@H]5C[C@](C)(C(=O)O)CC[C@]5(C)CC[C@@]4(C)[C@]3(C)CC[C@@H]12
1

Which result was noted for this compound in the test: CC(C)[C@H]1CCC2=C3CC[C@]45OC(=O)[C@@]6(CCC(C)(C)C[C@H]64)CC[C@@]5(C)[C@]3(C)CC[C@@]21C
-1

* * *

# Tested on: HS 578T breast
# Measurement description: NCI-60 one-dose screen, 48 h
# Applied conditions: 10 µM unless noted
About 83,000 compounds went through this panel and 20% of them were active in at least one assay; those are over-represented in the sample as a whole. The source made the active and inactive calls. How the source made its calls: active means growth percent below 10; inactive means the rest.
Outcome (select one): true (1) = active, false (0) = inactive

Smiles record | Class label
Cc1cnc([C@]23CC[C@@H](C)[C@H](C)[C@H]2C2=CC[C@@H]4[C@@]5(C)Cc6c([nH]c7ccccc67)C(C)(C)[C@@H]5CC[C@@]4(C)[C@]2(C)CC3)o1 | false (0)
O=C(Nc1ccc(Nc2ccncc2)cc1)c1ccc([N+](=O)[O-])cc1 | false (0)
O=C(Nc1ccc(Oc2ccc(F)cc2)c(Cl)c1)c1cccnn1 | false (0)
O=C(Nc1ccc(C(=O)/C=C/c2ccc(N3CCOCC3)cc2)cc1)Nc1ccc([N+](=O)[O-])cc1 | false (0)
O=[N+]([O-])c1cc([N+](=O)[O-])c(C(F)(F)F)cc1NN=C(c1ccc(O)cc1)c1ccc(O)cc1 | false (0)

Please indicate how the test categorized CC1(C)C(=O)/C(=C\c2ccco2)C[C@]2(C)[C@H]3CC=C4[C@@H]5C[C@](C)(C(=O)O)CC[C@]5(C)CC[C@@]4(C)[C@]3(C)CC[C@@H]12 .
true (1)

Call for entry Cc1cc(C)c(S(=O)(=O)/N=c2/n(-c3ccccc3)nc3n2CCN3C2=NCCN2)c(C)c1 :
false (0)

* * *

# System: TK-10 renal
# Measurement description: NCI-60 one-dose screen, 48 h
# Applied conditions: 10 µM unless noted
# Experimental: Growth inhibition of the TK-10 human tumor cell line is measured as a screen for anti-cancer activity. Cells are grown in 96 well plates and exposed to the test compound for 48 hours. Compounds are tested at a single concentration, which is 10^-5 M for most compounds. The reported endpoint is percent growth (GI% or GIPRCNT), where numbers from 0 - 100% represent growth inhibition, and numbers from -100% - 0 represent cell death. For example, a value of 40 represents 60% growth inhibition. […]
Compounds without any hit were thinned out: in the full panel of roughly 83,000, 20% have a hit. The source made the active and inactive calls. The calls were made as follows: active = growth percent below 10; inactive = the rest.
In this exercise, the only acceptable responses are t for active, f for inactive

Compound | Class label
C#CCNC(=O)CC[C@@H](C)[C@H]1CC[C@H]2[C@@H]3CC[C@@H]4CC(=O)CC[C@]4(C)[C@H]3CC[C@]12C | t
COc1ccc(-c2cc(-c3ccc(Cl)cc3)nc(SCCCCCCC(=O)NO)n2)cc1 | f
N#C/C(C(=O)c1ccccc1)=C1/C(=O)Nc2ccccc21 | f
ClC1=C(Cl)C(Cl)=C(Cl)C1=Cc1ccccc1 | t

Test call, this compound: COc1cc2c(cc1OC(C)=O)C(=O)CCCC2
f

Assay result, entry COc1cc2c(c(Br)c1N)-c1cc(Br)c(N)cc1C2=O — outcome?
f

I'd appreciate the recorded outcome for COc1ncnc2c(-c3ccccc3)cn(COCc3ccccc3)c12 from this test.
f

Outcome? CC1(C)CC[C@]23CC[C@]4(C)[C@H](CC[C@@H]5[C@@]6(C)C/C(=C/c7ccncc7)C(=O)C(C)(C)[C@@H]6CC[C@]54C)[C@H]2[C@H]1OC3=O
f

State the result this test recorded for Cc1cc(-c2ccc(N=Nc3c(S(=O)(=O)O)cc4cc(S(=O)(=O)O)cc(N)c4c3O)c(C)c2)ccc1N=Nc1cc(S(=O)(=O)O)c2ccccc2c1O .
f

GET /call?item= O=C1CC(C(F)(F)F)Cc2nc3ccc(Br)cc3cc21 (stereo unspecified) returns the recorded outcome of this test.
f
